Cited source for all entries: the supplement of paper PMC8183993

- System: U2OS
- procedure details: mean cytoplasmic OPP incorporation (global translation) relative to DMSO (% of DMSO); higher = more protein synthesis
- assay setup: 10 µM; 24 h
Counter-ions that a name gives are not always drawn. Whole data set: some 3,100 compounds, median “mean cytoplasmic OPP incorporation (global translation) relative to DMSO” near 100, cut for the lowest 2% near 56. The sample as a whole holds a higher share of the lowest values than the screen did.
Returns one of Fulfilled or Not fulfilled; Fulfilled when mean cytoplasmic OPP incorporation is >= 100.

// known answers, use as guide
Cc1nc(N)sc1CCN [Amthamine dihydrobromide]: Fulfilled
C=CCN1CC[C@]2(C)c3cc(O)ccc3C[C@H]1C2C (single isomer, unassigned; (+)): Fulfilled
C[C@]12CC[C@@H](O)C[C@H]1CC[C@@H]1[C@@H]2CC[C@]2(C)C(=O)CC[C@@H]12 [3-alpha-Hydroxy-5-beta-androstan-17-one]: Not fulfilled
O=C(O)/C=C/CO [trans-4-Hydroxycrotonic acid]: Fulfilled
CN(C(=O)Cc1ccc(Cl)c(Cl)c1)[C@H](CN1CCCC1)c1ccccc1 [ICI-199,441 hydrochloride]: Fulfilled

Query: Could you verify whether the entry C[C@]12CC[C@H](O)C[C@@H]1CC[C@@H]1[C@@H]2CC[C@]2(C)C(=O)CC[C@@H]12 shows mean cytoplasmic OPP incorporation of no less than 100?
Response: Not fulfilled

Query: Please check the record C=CCN1C[C@H](C)N([C@H](c2ccc(C(=O)N(CC)CC)cc2)c2cccc(O)c2)C[C@H]1C and state if its mean cytoplasmic OPP incorporation is at or above 100.
Response: Fulfilled

Query: Exam item: decide whether the reported mean cytoplasmic OPP incorporation for C[C@]12CC[C@H](O)C[C@H]1CC[C@@H]1[C@@H]2CC[C@]2(C)[C@@H](C3=CC(=O)OC3)CC[C@]12O [Digitoxigenin] is at least 100.
Response: Not fulfilled

Query: Given the entry C[C@]12CC[C@H](O)C[C@@H]1CC[C@@H]1[C@@H]2CC[C@]2(C)C(=O)CC[C@@H]12 [Epiandrosterone] , answer whether its mean cytoplasmic OPP incorporation meets or surpasses 100.
Response: Not fulfilled

Query: // inclusive: mean cytoplasmic OPP incorporation at least 100? input: Cc1ccc2cc3c(ccc4ccccc43)c3c2c1CC3 [3-Methylcholanthrene]
Response: Fulfilled

Query: Textbook exercise: given the entry COc1cc(N)c(Cl)cc1C(=O)NC1CN2CCC1CC2 (configuration not stated) [Zacopride hydrochloride] , state whether its mean cytoplasmic OPP incorporation is greater than or equal to 100.
Response: Fulfilled

Query: Is reported mean cytoplasmic OPP incorporation greater than or equal to 100 here: O=C(O)CCC(CP(=O)(O)O)C(=O)O (configuration not stated) [PMPA (NAALADase inhibitor)]
Response: Fulfilled

Query: Has O=C1NC(=O)c2c1c1c3ccccc3n3c1c1c2c2ccccc2n1[C@H]1CC[C@@H]3O1 a recorded mean cytoplasmic OPP incorporation greater than or equal to 100?
Response: Not fulfilled
